- subject of test: Mitogen-activated protein kinase 11 (Homo sapiens) (UniProt Q15759)
- Sequence (Q15759 whole entry): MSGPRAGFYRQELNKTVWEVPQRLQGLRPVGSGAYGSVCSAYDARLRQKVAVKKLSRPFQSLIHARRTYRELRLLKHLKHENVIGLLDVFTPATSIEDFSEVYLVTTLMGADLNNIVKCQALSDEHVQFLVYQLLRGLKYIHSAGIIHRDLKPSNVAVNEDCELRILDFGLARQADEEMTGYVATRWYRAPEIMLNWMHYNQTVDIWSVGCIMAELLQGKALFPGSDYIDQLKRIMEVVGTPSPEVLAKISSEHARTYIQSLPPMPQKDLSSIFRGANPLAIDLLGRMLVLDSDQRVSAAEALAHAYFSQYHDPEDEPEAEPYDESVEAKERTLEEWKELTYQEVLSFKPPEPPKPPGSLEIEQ
- condition label: at 10 µM
Listing: residual activity of selected compounds
quantity kind: residual activity (%)

smiles notation	quantity kind	measured result
CCOc1cc2ncnc(Nc3cccc(Br)c3)c2cc1OCC	residual activity	50
O=C1Nc2ccc(Br)cc2/C1=C\c1cc2c([nH]1)CCCC2	residual activity	79
O=c1cc(-c2cccc3c2Sc2ccccc2S3)oc(N2CCOCC2)c1	residual activity	109
Cc1nc2cc3nc(-c4cccs4)cnc3cc2n1C	residual activity	97
Cn1cc(/C=C2\C(=O)Nc3ccc(S(N)(=O)=O)cc32)c2ccccc21	residual activity	99
